src = ChEMBL document CHEMBL4414548

Experiment: Cmax in mouse at 10 mg/kg, po after 7 hrs
Format: ADME, organism-based
Parameters: dose 10 mg/kg, route oral
Details: in vivo
Measurement label: log10(Cmax) (log10 of the value in nM)

Structure notation	log10(Cmax)
CNC(=O)c1cnc(NC(=O)C2CC2)cc1Nc1ccccc1S(C)(=O)=O	2.28
[2H]C([2H])([2H])NC(=O)c1nnc(Nc2ccc(F)cn2)cc1Nc1ccccc1S(C)(=O)=O	3.59
[2H]C([2H])([2H])NC(=O)c1nnc(Nc2ccccn2)cc1Nc1ccccc1S(C)(=O)=O	4.02
CNC(=O)c1cnc(Nc2ccccn2)cc1Nc1ccccc1S(C)(=O)=O	3.27
[2H]C([2H])([2H])NC(=O)c1nnc(NC(=O)C2CC2)cc1Nc1ccccc1S(C)(=O)=O	3.53
[2H]C([2H])([2H])NC(=O)c1cnc(Nc2ccc(F)cn2)cc1Nc1ccccc1S(C)(=O)=O	3.16

* * *

Target: Voltage-gated inwardly rectifying potassium channel KCNH2 (Homo sapiens, UniProt Q12809)
Sequence (Q12809 whole entry): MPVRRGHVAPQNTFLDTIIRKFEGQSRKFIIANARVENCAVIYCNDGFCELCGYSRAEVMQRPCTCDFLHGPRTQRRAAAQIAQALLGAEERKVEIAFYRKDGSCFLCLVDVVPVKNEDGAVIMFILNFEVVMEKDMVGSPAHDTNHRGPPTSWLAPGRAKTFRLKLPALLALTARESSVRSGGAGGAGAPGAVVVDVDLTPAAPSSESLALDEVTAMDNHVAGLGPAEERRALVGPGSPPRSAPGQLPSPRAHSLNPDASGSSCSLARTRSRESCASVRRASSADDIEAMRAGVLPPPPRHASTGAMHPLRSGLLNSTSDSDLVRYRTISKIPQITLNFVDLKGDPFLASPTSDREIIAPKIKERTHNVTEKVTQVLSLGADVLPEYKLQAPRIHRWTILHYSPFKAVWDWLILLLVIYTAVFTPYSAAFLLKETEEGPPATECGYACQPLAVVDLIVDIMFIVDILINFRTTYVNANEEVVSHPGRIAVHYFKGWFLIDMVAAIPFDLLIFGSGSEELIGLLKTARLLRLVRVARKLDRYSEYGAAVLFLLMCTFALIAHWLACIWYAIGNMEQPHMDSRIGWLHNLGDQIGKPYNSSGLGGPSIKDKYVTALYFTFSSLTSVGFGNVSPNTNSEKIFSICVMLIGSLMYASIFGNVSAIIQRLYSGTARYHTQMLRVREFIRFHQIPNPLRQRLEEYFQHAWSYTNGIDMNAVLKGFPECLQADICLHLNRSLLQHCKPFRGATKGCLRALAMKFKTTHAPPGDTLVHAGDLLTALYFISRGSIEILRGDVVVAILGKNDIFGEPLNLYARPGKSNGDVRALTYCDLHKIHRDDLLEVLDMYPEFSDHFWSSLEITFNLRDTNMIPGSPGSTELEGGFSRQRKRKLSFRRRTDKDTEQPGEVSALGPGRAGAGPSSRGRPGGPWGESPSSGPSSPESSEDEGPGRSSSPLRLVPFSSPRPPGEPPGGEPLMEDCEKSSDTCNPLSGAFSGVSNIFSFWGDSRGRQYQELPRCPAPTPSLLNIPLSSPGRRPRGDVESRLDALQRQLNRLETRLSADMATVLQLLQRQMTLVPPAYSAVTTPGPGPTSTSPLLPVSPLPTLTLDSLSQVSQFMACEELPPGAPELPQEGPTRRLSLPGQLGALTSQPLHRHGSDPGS
Test: Inhibition of human ERG by fluorescence polarization assay
pIC50: −log10 of the molar value.

Structure notation	Modifier	pIC50
CNC(=O)c1cnc(NC(=O)C2CC2)cc1Nc1ccccc1S(C)(=O)=O	<	4.10
CNC(=O)c1cnc(Nc2cc(C)ccn2)cc1Nc1ccccc1S(C)(=O)=O	=	4.80
CNC(=O)c1cnc(Nc2ccccn2)cc1Nc1ccccc1S(C)(=O)=O	=	4.44
CNC(=O)c1cnc(Nc2ccc(F)cn2)cc1Nc1ccccc1S(C)(=O)=O	=	4.60
CNC(=O)c1cnc(Nc2ccc(N3CCOCC3)cn2)cc1Nc1ccccc1S(C)(=O)=O	=	4.40
CNC(=O)c1cnc(Nc2ccc(C)nn2)cc1Nc1ccccc1S(C)(=O)=O	=	4.37

* * *

Experiment: Drug concentration in Balb/c mouse at 10 mg/kg, po after 1 hr
Format: ADME, organism-based
Conditions: in vivo, read-out: Drug uptake
Measurement label: concentration at 1 h (nM)

Structure notation	Scale unit	Assay value
[2H]C([2H])([2H])NC(=O)c1cnc(Nc2ccc(F)cn2)cc1Nc1ccccc1S(C)(=O)=O	nM	1400
CNC(=O)c1cnc(Nc2ccc(F)cn2)cc1Nc1ccccc1S(C)(=O)=O	nM	1600

* * *

Assay: AUClast in mouse at 10 mg/kg, po after 7 hrs
Format: ADME, organism-based
Parameters: time < 7 hr, dose 10 mg/kg, route oral
Settings: in vivo

Structure notation	AUC(0-t) at 7 h
[2H]C([2H])([2H])NC(=O)c1nnc(NC(=O)C2CC2)cc1Nc1ccccc1S(C)(=O)=O	6.61 µM·h
[2H]C([2H])([2H])NC(=O)c1nnc(Nc2ccccn2)cc1Nc1ccccc1S(C)(=O)=O	24.3 µM·h
CNC(=O)c1cnc(NC(=O)C2CC2)cc1Nc1ccccc1S(C)(=O)=O	0.56 µM·h
CNC(=O)c1cnc(Nc2ccccn2)cc1Nc1ccccc1S(C)(=O)=O	4.29 µM·h
[2H]C([2H])([2H])NC(=O)c1nnc(Nc2ccc(F)cn2)cc1Nc1ccccc1S(C)(=O)=O	11.6 µM·h
[2H]C([2H])([2H])NC(=O)c1cnc(Nc2ccc(F)cn2)cc1Nc1ccccc1S(C)(=O)=O	7.83 µM·h

* * *

Assay: Drug concentration in Balb/c mouse at 3 mg/kg, iv after 7 hrs
Format: ADME, organism-based
Details: in vivo, read-out: Drug uptake
In this section, each of the compounds is paired with its reported concentration at 7 h.

Structure notation	concentration at 7 h
CNC(=O)c1cnc(Nc2ccc(F)cn2)cc1Nc1ccccc1S(C)(=O)=O	190 nM
[2H]C([2H])([2H])NC(=O)c1cnc(Nc2ccc(F)cn2)cc1Nc1ccccc1S(C)(=O)=O	47 nM

* * *

Assay: Half life in human liver microsomes
Type: ADME, Microsome

Structure notation	Scale unit	Modifier	half-life
[2H]C([2H])([2H])NC(=O)c1nnc(Nc2ccccn2)cc1Nc1ccccc1S(C)(=O)=O	h	=	0.8
[2H]C([2H])([2H])NC(=O)c1nnc(NC(=O)C2CC2)cc1Nc1ccccc1S(C)(=O)=O	h	=	1.83
CNC(=O)c1cnc(Nc2ccccn2)cc1Nc1ccccc1S(C)(=O)=O	h	=	0.883
[2H]C([2H])([2H])NC(=O)c1cnc(Nc2ccc(F)cn2)cc1Nc1ccccc1S(C)(=O)=O	h	=	1.15
CNC(=O)c1cnc(NC(=O)C2CC2)cc1Nc1ccccc1S(C)(=O)=O	h	>	2
[2H]C([2H])([2H])NC(=O)c1nnc(Nc2ccc(F)cn2)cc1Nc1ccccc1S(C)(=O)=O	h	=	1.18

* * *

In this section, each of the compounds is paired with its reported Cmax.
Test: Cmax in Balb/c mouse assessed as 6-((5-Fluoropyridin-2-yl)amino)-4-((2-(methylsulfonyl)phenyl)amino)nicotinamide level at 10 mg/kg, po after 7 hrs
Assay type: ADME, organism-based
Set-up: dose 10 mg/kg, route oral
Details: in vivo

Structure notation	Scale unit	Cmax
[2H]C([2H])([2H])NC(=O)c1cnc(Nc2ccc(F)cn2)cc1Nc1ccccc1S(C)(=O)=O	nM	4.9
CNC(=O)c1cnc(Nc2ccc(F)cn2)cc1Nc1ccccc1S(C)(=O)=O	nM	24

* * *

Test: Efflux ratio of permeability in human Caco2
Type: ADME, cell-based
Details: Caco-2
In this section, each of the molecules is paired with its reported efflux ratio.

Structure notation	Modifier	efflux ratio
CNC(=O)c1cnc(Nc2cc(C)ccn2)cc1Nc1ccccc1S(C)(=O)=O	=	9
CNC(=O)c1cnc(Nc2ccc(N3CCOCC3)cn2)cc1Nc1ccccc1S(C)(=O)=O	>	26
CNC(=O)c1cnc(Nc2ccc(F)cn2)cc1Nc1ccccc1SC	=	0.5
[2H]C([2H])([2H])NC(=O)c1nnc(Nc2ccccn2)cc1Nc1ccccc1S(C)(=O)=O	=	2.1
CNC(=O)c1cnc(Nc2ccccn2)cc1Nc1ccccc1S(C)(=O)=O	=	9.8
CNC(=O)c1cnc(Nc2ccc(C)nn2)cc1Nc1ccccc1S(C)(=O)=O	>	12
CNC(=O)c1cnc(Nc2ccc(F)cn2)cc1Nc1ccccc1OC	=	0.4
CNC(=O)c1cnc(NC(=O)C2CC2)cc1Nc1ccccc1S(C)(=O)=O	=	29
CNC(=O)c1cnc(Nc2ccc(F)cn2)cc1Nc1ccc(F)c(F)c1OC	=	0.5
[2H]C([2H])([2H])NC(=O)c1nnc(Nc2ccc(F)cn2)cc1Nc1ccccc1S(C)(=O)=O	=	3.4

* * *

Test: AUClast in Balb/c mouse at 3 mg/kg, iv
Format: ADME, organism-based
Design: dose 3 mg/kg, route intravenous, time 0 - last
Conditions: in vivo

Structure notation	AUC(0-t)
[2H]C([2H])([2H])NC(=O)c1cnc(Nc2ccc(F)cn2)cc1Nc1ccccc1S(C)(=O)=O	5 µM·h
CNC(=O)c1cnc(Nc2ccc(F)cn2)cc1Nc1ccccc1S(C)(=O)=O	7 µM·h

* * *

Experiment: Half life in dog liver microsomes
Format: ADME, Canis lupus familiaris, Microsome

Structure notation	half-life
[2H]C([2H])([2H])NC(=O)c1nnc(Nc2ccc(F)cn2)cc1Nc1ccccc1S(C)(=O)=O	32 min
[2H]C([2H])([2H])NC(=O)c1nnc(NC(=O)C2CC2)cc1Nc1ccccc1S(C)(=O)=O	75 min
[2H]C([2H])([2H])NC(=O)c1nnc(Nc2ccccn2)cc1Nc1ccccc1S(C)(=O)=O	19 min
[2H]C([2H])([2H])NC(=O)c1cnc(Nc2ccc(F)cn2)cc1Nc1ccccc1S(C)(=O)=O	16 min
CNC(=O)c1cnc(Nc2ccccn2)cc1Nc1ccccc1S(C)(=O)=O	13 min
CNC(=O)c1cnc(NC(=O)C2CC2)cc1Nc1ccccc1S(C)(=O)=O	34 min

* * *

In this section, each of the compounds is paired with its reported logP.
Test: Partition coefficient, log P of compound by HPLC analysis
Format: physicochemical
Conditions: octanol/water
Measurement label: logP

Structure notation	Measurement label	Assay value
CNC(=O)c1cnc(NC(=O)C2CC2)cc1Nc1ccccc1S(C)(=O)=O	logP	1.89
CNC(=O)c1cnc(Nc2ccccn2)cc1Nc1ccccc1S(C)(=O)=O	logP	2.24
[2H]C([2H])([2H])NC(=O)c1nnc(NC(=O)C2CC2)cc1Nc1ccccc1S(C)(=O)=O	logP	2.03
CNC(=O)c1cnc(Nc2ccc(F)cn2)cc1Nc1ccccc1S(C)(=O)=O	logP	2.61
[2H]C([2H])([2H])NC(=O)c1nnc(Nc2ccc(F)cn2)cc1Nc1ccccc1S(C)(=O)=O	logP	2.77
[2H]C([2H])([2H])NC(=O)c1nnc(Nc2ccccn2)cc1Nc1ccccc1S(C)(=O)=O	logP	2.45

* * *

Test: Cmax in anesthetized rabbit at 1 to 10 mg/kg, iv
Type: ADME, organism-based, Oryctolagus cuniculus
Details: in vivo

Structure notation	Cmax (µM)
[2H]C([2H])([2H])NC(=O)c1cnc(Nc2ccc(F)cn2)cc1Nc1ccccc1S(C)(=O)=O	20.2

* * *

Test: Volume of distribution at steady state in Balb/c mouse at 3 mg/kg, iv
Type: ADME, organism-based
Conditions: in vivo, read-out: Vdss
Measurement label: Vd (L/kg)

Structure notation	Measurement label	Scale unit	Assay value
[2H]C([2H])([2H])NC(=O)c1cnc(Nc2ccc(F)cn2)cc1Nc1ccccc1S(C)(=O)=O	Vd	L/kg	2.7
CNC(=O)c1cnc(Nc2ccc(F)cn2)cc1Nc1ccccc1S(C)(=O)=O	Vd	L/kg	2.8
